Values from patent US8426429B2

- Target or system: β-secretase (BACE) (Homo sapiens)
- Construct: purchased Panvera
- Method notes: BACE FS1 % Inhibition Assay
- Type: biochemical
- Setup conditions: 10 μM test compound
Parameter % Inhibition (FS): see the listing below.

Molecule	% Inhibition (FS) / %
CCCC(CCCC(=O)N(C)C1CCN(C)CC1)N1Cc2cc(Oc3ccccc3)ccc2N=C1N (stereo not shown)	114
CCCC(CCCC(=O)NC1CCCCCC1)N1Cc2cc(Oc3ccccc3)ccc2N=C1N (stereo not shown)	107
CCCCc1ccc(C(=O)NCCN2Cc3cc(Oc4ccccc4)ccc3N=C2N)cc1	50
CCCC(CCCC(=O)NC1CCCCC1)N1Cc2cc(Oc3ccccc3)ccc2N=C1N (stereo not shown)	117
NC1=Nc2ccc(Oc3ccccc3)cc2CN1C(c1ccccc1)c1cccc(C(=O)N(C2CCCCC2)C2CCCCC2)c1 (stereo not shown)	118
NC1=Nc2ccc(Oc3ccccc3)cc2CN1C1c2ccccc2-c2cccc(C(=O)N(C3CCCCC3)C3CCCCC3)c21 (stereo not shown)	67
NC1=Nc2ccc(Oc3ccccc3)cc2CN1C1c2ccccc2-c2c(C(=O)N(C3CCCCC3)C3CCCCC3)cccc21 (stereo not shown)	71

###

Parameter % Inhibition: see the listing below.
- Target or system: β-secretase (BACE) (Homo sapiens, UniProt P56817)
- Construct: purchased Panvera
- Sequence (P56817 46-501): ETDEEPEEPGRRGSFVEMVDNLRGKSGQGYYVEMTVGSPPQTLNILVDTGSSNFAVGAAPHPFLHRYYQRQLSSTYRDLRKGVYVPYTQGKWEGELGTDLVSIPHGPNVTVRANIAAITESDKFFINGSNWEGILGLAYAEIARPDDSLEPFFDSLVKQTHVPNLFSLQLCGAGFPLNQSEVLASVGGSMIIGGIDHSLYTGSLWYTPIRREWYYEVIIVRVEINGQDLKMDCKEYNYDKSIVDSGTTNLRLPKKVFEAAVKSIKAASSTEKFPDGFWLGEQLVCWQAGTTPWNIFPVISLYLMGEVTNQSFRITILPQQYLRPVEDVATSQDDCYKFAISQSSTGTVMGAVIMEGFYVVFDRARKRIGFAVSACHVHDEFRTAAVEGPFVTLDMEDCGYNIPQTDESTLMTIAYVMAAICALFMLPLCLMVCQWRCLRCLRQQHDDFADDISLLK
- Method notes: BACE % Inhibition Assay ((Aedens)-[…]-(Dabcyl K-amide) substrate)
- Type: biochemical
- Setup conditions: 0.3 μM compound; % error ±10%
Value kind: % Inhibition

Compound	Observed
CC(C)(C)OC(=O)NCC(C1CCCCC1)N1Cc2cc(Oc3ccccc3)ccc2N=C1N (stereo not drawn) [Compound 367]	<30%
NC1=Nc2ccc(Oc3ccccc3)cc2CN1Cc1cccc(CNC(=O)C(c2ccccc2)c2ccccc2)c1 [Compound 337]	<30%
CC(C)(C)C(=O)NCC(C1CCCCC1)N1Cc2cc(Oc3ccccc3)ccc2N=C1N (stereo not drawn) [Compound 317]	<30%
CCCCC(CC)C(=O)NCC(c1ccccc1)N1Cc2cc(Oc3ccccc3)ccc2N=C1N (stereo not drawn) [Compound 341]	<30%
NC1=Nc2ccc(Oc3ccccc3)cc2CN1C(CNC(=O)C1(c2ccc(Cl)cc2)CCCC1)C1CCCCC1 (stereo not drawn) [Compound 390]	<30%
NC1=Nc2ccc(Oc3ccccc3)cc2CN1C(CNC(=O)C1CCCCC1)c1ccccc1 (stereo not drawn) [Compound 342]	50%
CCCC(CCC)C(=O)NCc1cccc(CN2Cc3cc(Oc4ccccc4)ccc3N=C2N)c1 [Compound 338]	<30%
CCCCC(CC)C(=O)NCc1cccc(CN2Cc3cc(Oc4ccccc4)ccc3N=C2N)c1 (stereo not drawn) [Compound 339]	<30%
NC1=Nc2ccc(Oc3ccccc3)cc2CN1Cc1cccc(CNC(=O)C23CC4CC(CC(C4)C2)C3)c1 [Compound 336]	<30%
CCCC(CNC(=O)C1CCCCC1)N1Cc2cc(Oc3ccccc3)ccc2N=C1N (stereo not drawn) [Compound 343]	81%
NC1=Nc2ccc(Oc3ccccc3)cc2CN1C(CCNC(=O)C1CCCC1)C1CCCCC1 (stereo not drawn) [Compound 392]	75%
NC1=Nc2ccc(Oc3ccccc3)cc2CN1C(CNC(=O)CCC1CCCC1)C1CCCCC1 (stereo not drawn) [Compound 366]	64%

###

- Target or system: β-secretase (BACE) (Homo sapiens)
- Construct: purchased Panvera
- Method notes: BACE FS1 % Inhibition Assay
- Format: biochemical
- Setup conditions: 3 μM test compound
Parameter % Inhibition (FS): see the listing below.
Value kind: % Inhibition (FS) (%)

Compound	Unit abbreviation	Observed
Cc1ccc(C(CCC(=O)N(C)C2CCCCC2)N2Cc3cc(Oc4ccccc4)ccc3N=C2N)cc1 (stereo not shown)	%	111
Cc1cc(C)cc(Sc2ccc3c(c2)CN(Cc2cccc(C(=O)N(C)C4CCCCC4)c2)C(N)=N3)c1	%	72
CSc1ccc(Nc2ccc3c(c2)CN(Cc2cccc(C(=O)N(C)C4CCCCC4)c2)C(N)=N3)cc1	%	101

###

- Target or system: β-secretase (BACE) (Homo sapiens, UniProt P56817)
- Construct: purchased Panvera
- Method notes: BACE FS1 % Inhibition Assay
- Assay type: biochemical
- Setup conditions: 1 μM compound; FS1 substrate
Value kind: % Inhibition (FS) (%)

Compound	Target or system	Value kind	Unit abbreviation	Observed
COC(=O)C(COCc1ccccc1)N(C)C(=O)CCC(C1CCCCC1)N1Cc2cc(Oc3ccccc3)ccc2N=C1N (stereo not shown)	β-secretase (BACE) (Homo sapiens, UniProt P56817)	% Inhibition (FS)	%	97
COc1ccccc1-c1ccc2c(c1)CN([C@@H](CCC(=O)N(C)Cc1cnn(-c3ccccc3)c1)C1CCCCC1)C(N)=N2	β-secretase (BACE) (Homo sapiens, UniProt P56817)	% Inhibition (FS)	%	39
CC(CC(=O)NCCN1Cc2cc(-c3ccccc3Cl)ccc2N=C1N)C(F)(F)F (stereo not shown)	β-secretase (BACE) (Homo sapiens, UniProt P56817)	% Inhibition (FS)	%	86
CN(C(=O)CCC(C1CCCCC1)N1Cc2cc(Oc3ccccc3)ccc2N=C1N)C1(C(=O)O)CCCCC1 (stereo not shown)	β-secretase (BACE) (Homo sapiens, UniProt P56817)	% Inhibition (FS)	%	−38
Cc1ccccc1-c1ccc2c(c1)CN(CCNC(=O)CC(C)C(F)(F)F)C(N)=N2 (stereo not shown)	β-secretase (BACE) (Homo sapiens, UniProt P56817)	% Inhibition (FS)	%	99
CN(C(=O)CCC(C)(C)N1Cc2cc(Oc3ccccc3)ccc2N=C1N)C1CCCCC1	β-secretase (BACE) (Homo sapiens, UniProt P56817)	% Inhibition (FS)	%	28
CN(C(=O)CCC(C1CCCCC1)N1Cc2cc(Oc3ccccc3)ccc2N=C1N)C1CCC(C(=O)OCc2ccccc2)CC1 (stereo not shown)	β-secretase (BACE) (Homo sapiens, UniProt P56817)	% Inhibition (FS)	%	44
CC(CC(=O)NCCN1Cc2cc(-c3ccccc3)ccc2N=C1N)C(F)(F)F (stereo not shown)	β-secretase (BACE) (Homo sapiens, UniProt P56817)	% Inhibition (FS)	%	90
NC1=Nc2ccc(-c3ccccc3F)cc2CN1CCNC(=O)C1CCC(C(F)(F)F)CC1 (stereo not shown)	β-secretase (BACE) (Homo sapiens, UniProt P56817)	% Inhibition (FS)	%	36

###

- Target or system: β-secretase (BACE) (Homo sapiens, UniProt P56817)
- Construct: purchased Panvera
- Method notes: BACE FS1 % Inhibition Assay
- Assay type: biochemical
- Setup conditions: 3 μM test compound
Parameter % Inhibition (FS): see the listing below.

Compound	Unit abbreviation	% Inhibition (FS)
CCCCC(CC)C(=O)NCC(C1CCCCC1)N1Cc2cc(Oc3ccccc3)ccc2N=C1N (stereo not shown) [Compound 303]	%	109
CCCCCC1CC2(C(=O)NCCN3Cc4cc(Oc5ccccc5)ccc4N=C3N)CCC1CC2 (stereo not shown) [Compound 194]	%	38
CN(C(=O)CCC(C1CCCCC1)N1Cc2cc(Oc3ccccc3)ccc2N=C1N)C1CCOCC1 (stereo not shown) [Compound 633]	%	70
CC(C)Oc1ccccc1Oc1ccc2c(c1)CN(Cc1cccc(C(=O)N(C)C3CCCCC3)c1)C(N)=N2 [Compound 478]	%	46
CC(C)c1ccccc1Oc1ccc2c(c1)CN(C(CC(=O)NC1CCCCC1)C1CCCCC1)C(N)=N2 (stereo not shown) [Compound 313]	%	31
COc1ccccc1Sc1ccc2c(c1)CN(Cc1cccc(C(=O)N(C)C3CCCCC3)c1)C(N)=N2 [Compound 412]	%	49
CN(C(=O)c1cccc(CN2Cc3cc(Oc4ccccc4C4CCCC4)ccc3N=C2N)c1)C1CCCCC1 [Compound 512]	%	51
CC(C)(C)C1CCC(C(=O)NCCN2Cc3cc(Oc4ccccc4)ccc3N=C2N)CC1 (stereo not shown) [Compound 184]	%	31
CC(C)(C)OC(=O)NCC(c1ccccc1)N1Cc2cc(Oc3ccccc3)ccc2N=C1N (stereo not shown) [Compound 258]	%	72
CSc1ccccc1-c1ccc2c(c1)CN(CCNC(=O)C1CCCCC1)C(N)=N2 [Compound 540]	%	84
CCCCCC(CCC(=O)NC1CCCCCC1)N1Cc2cc(Oc3ccccc3)ccc2N=C1N (stereo not shown) [Compound 150]	%	90

###

- Target or system: β-secretase (BACE) (Homo sapiens, UniProt P56817)
- Construct: purchased Panvera
- Method notes: BACE FS1 % Inhibition Assay
- Assay type: biochemical
- Setup conditions: 3 μM test compound; read-out: % Inhibition (FS)

Compound	inhibition at 3 µM, %
CN(C(=O)c1cccc(CN2Cc3cc(-c4ccccc4Oc4ccccc4)ccc3N=C2N)c1)C1CCCCC1 [Compound 326]	79
COc1ccccc1-c1ccc2c(c1)CN([C@@H](CCC(=O)N(C)C1CCCCC1)C1CCCCC1)C(N)=N2 [Compound 506]	128
NC1=Nc2ccc(Oc3ccccc3)cc2CN1C(CNC(=O)C1CCCC1)C1CCCCC1 (stereo not shown) [Compound 295]	116
NC1=Nc2ccc(Oc3ccccc3)cc2CN1[C@H](CNC(=O)C1CCCCC1)C1CCCCC1 [Compound 484]	62
CSc1ccccc1-c1ccc2c(c1)CN(Cc1cccc(C(=O)N(C)C3CCCCC3)c1)C(N)=N2 [Compound 322]	95
CC(C)C(CNC(=O)C12CC3CC(CC(C3)C1)C2)N1Cc2cc(Oc3ccccc3)ccc2N=C1N (stereo not shown) [Compound 562]	128
NC1=Nc2ccc(-c3ccccc3)cc2CN1CCNC(=O)Cc1ccccc1 [Compound 595]	104
